# assay-target: HLA-DR DRB1*0101 (DR1) (Homo sapiens, UniProt P01903+P01911, A100R/D57E/F55L/F60I/F76Y/I96L/L162R/M171V/P40L/Q125E/R42F/V115G/Y59C)
# experiment-notes: biochemical
# Type: binding
# assay-context: DRB1 *0101
No end group written: not given here.
property-label: IC50 (nM)

>>> measured("KLKLYTGEATRTGDR")
178
>>> measured("PRWLCAGALVLAGGF")
46
>>> measured("YEALIKLLPFSKRIR")
55
>>> measured("DKAVSGLRSLTTLLR")
13
>>> measured("FVNQHLCGSDLVEAL [FVNQHLCGSDLVEAL]")
117
>>> measured("LHKLQTYPRTNTGSG")
2120
>>> measured("APPRLITDSRVLERY")
10100
>>> measured("RTITADTFRKLFRVY")
148
>>> measured("KSNFLNCYVSGFHPSD")
2500
>>> measured("LKLVYRDDFPYAVCR")
778
>>> measured("NSRLLQERGVAYINA")
614
>>> measured("LWQLNGRLEYTLKDR")
698
>>> measured("LRTLQQMLLGTLQVV")
80
>>> measured("RSSNCQSQKLLWQLN")
2050
>>> measured("EMLQNIFAIFRQDSS")
395
>>> measured("RLRIVRGTQLFEDNYAL")
4.8
>>> measured("RVIKNSIRLTL")
3650
>>> measured("SNLELLRISLLLIQS")
72
>>> measured("GVILYSDPADYFAPG")
1570
>>> measured("VFEFAFKDLFVVYRD")
6720
>>> measured("TTLLRALGAQKEAIS")
19
>>> measured("AAEAAAATAKAAA")
2500
>>> measured("QKILIKIPVTKNIIT")
993
>>> measured("AVTIYEMLQNIFAIF")
17
>>> measured("LRVVQQLLMGALTVT")
5.7
>>> measured("NGVLQGITSWGPEPC")
1090
>>> measured("ALLIIPPKIHISIEL")
648
>>> measured("YDPLYCESVHNFTLP")
1600
>>> measured("FLRIVQTRSVEGSTGF")
6.4
>>> measured("ILFLVKMNALRRLPV")
0.8
>>> measured("WKRMEVGQQAVEVWQ")
62
>>> measured("HFNMLKNKMQSSFFM")
12
>>> measured("WAGLLLDTRTLEVQS")
2020
>>> measured("LQQMLLGTLQVVCPG")
168
>>> measured("VQQLLMGALTVTCPL")
10
